Tested on: MDA-MB-231
Experiment: Antiproliferative activity against human MDA-MB-231 cells after 72 hrs by MTT assay
Type: functional, cell-based
Conditions: MDA-MB-231, 72 h
MEASUREMENT NAME: IC50 (µM)

                                   compound  measurement_name  endpoint_value
0  C=C1C(=O)[C@@]23C(=O)[C@@H]4OC[C@]5(C=CCC(C)(C)[C@@H]45)[C@@H]2CC[C@@H]1[C@H]3OC(=O)c1cccnc1              IC50            1.07
1  C=C1C(=O)[C@@]23C(=O)[C@@H]4OC[C@]5(CCCC(C)(C)[C@@H]45)[C@@H]2CC[C@@H]1[C@H]3O              IC50            1.74
2  C=C1C(=O)[C@@]23C(=O)[C@@H]4OC[C@]5(C=CCC(C)(C)[C@@H]45)[C@@H]2CC[C@@H]1[C@H]3OC(=O)/C=C/c1cncnc1              IC50            1.08
3  C=C1C(=O)[C@@]23C(=O)[C@@H]4OC[C@]5(C=CCC(C)(C)[C@@H]45)[C@@H]2CC[C@@H]1[C@H]3OC(=O)/C=C/c1ccnc(F)c1              IC50             0.7
4  C=C1C(=O)[C@@]23C(=O)[C@@H]4OC[C@]5(C=CCC(C)(C)[C@@H]45)[C@@H]2CC[C@@H]1[C@H]3OC(=O)/C=C/c1ccsc1              IC50            2.18
5  C=C1C(=O)[C@]23[C@H](O)[C@H]1CC[C@H]2[C@@]12CO[C@]3(O)[C@@H](O)[C@@H]1C(C)(C)CC[C@@H]2O [ORIDONIN]              IC50            17.9
6  C=C1C(=O)[C@@]23C(=O)[C@@H]4OC[C@]5(C=CCC(C)(C)[C@@H]45)[C@@H]2CC[C@@H]1[C@H]3OC(=O)/C=C/c1ccnc(OC)c1              IC50            1.42
7  C=C1C(=O)[C@]23[C@H](O)[C@H]1CC[C@H]2[C@]12C=CCC(C)(C)[C@H]1[C@H](O)[C@@]3(O)OC2              IC50            2.33
8  C=C1C(=O)[C@@]23C(=O)[C@@H]4OC[C@]5(C=CCC(C)(C)[C@@H]45)[C@@H]2CC[C@@H]1[C@H]3OC(=O)/C=C/c1ccccn1              IC50            1.45

----------
Each entry below carries its reported log10(IC50).
System: HCC1806
Assay: Antiproliferative activity against human HCC1806 cells after 72 hrs by MTT assay
Format: functional, cell-based
Details: HCC1806, 72 h
MEASUREMENT NAME: log10(IC50) (log10 of the value in nM)

>>> df
                                   compound  endpoint_value
0  C=C1C(=O)[C@]23[C@H](O)[C@H]1CC[C@H]2[C@@]12CO[C@]3(O)[C@@H](O)[C@@H]1C(C)(C)CC[C@@H]2O [ORIDONIN]            4.34
1  C=C1C(=O)[C@@]23C(=O)[C@@H]4OC[C@]5(C=CCC(C)(C)[C@@H]45)[C@@H]2CC[C@@H]1[C@H]3OC(=O)CCc1ccccc1            3.21
2  C=C1C(=O)[C@@]23C(=O)[C@@H]4OC[C@]5(C=CCC(C)(C)[C@@H]45)[C@@H]2CC[C@@H]1[C@H]3OC(=O)/C=C/c1ccnc(Cl)c1            3.32
3  C=C1C(=O)[C@@]23C(=O)[C@@H]4OC[C@]5(C=CCC(C)(C)[C@@H]45)[C@@H]2CC[C@@H]1[C@H]3OC(=O)c1ccc(OC)cc1            3.23
4  C=C1C(=O)[C@@]23C(=O)[C@@H]4OC[C@]5(C=CCC(C)(C)[C@@H]45)[C@@H]2CC[C@@H]1[C@H]3OC(=O)/C=C/c1ccncc1Cl            2.91
5  C=C1C(=O)[C@@]23C(=O)[C@@H]4OC[C@]5(C=CCC(C)(C)[C@@H]45)[C@@H]2CC[C@@H]1[C@H]3OC(=O)/C=C/c1ccccc1            3.19
